Where do the numbers come from? From ChEMBL document CHEMBL4364318.

Tested on: U-266
Experiment Notes: Induction of nitric oxide production in human U266 cells
Format: functional, cell-based
Measure Name: pIC50
Just so you know, pIC50 here is -log10 of the concentration in molar units; reply with that number alone.

Asked: Specify measured pIC50 for O=C(O[C@@H]1Cc2c(O)cc(O)cc2O[C@@H]1c1cc(O)c(O)c(O)c1)c1cc(O)c(O)c(O)c1 [EPIGALOCATECHIN GALLATE] .
Given back: 4.63
